experiment: Chemical stability of the compound at pH 7.4 measured for 24 hrs by HPLC analysis; format: physicochemical; details: buffer, read-out: Stability
# remaining at 24 h per entry

- SMILES_CODE: "NC(=O)c1ccn(-c2cccc(OC(=O)N3CCN(CCCc4ccccc4)CC3)c2)c1"
  remaining at 24 h: "> 99%"
- SMILES_CODE: "Cc1cc(C(N)=O)c(-c2cccc(OC(=O)N3CCC(NCCc4ccccc4)CC3)c2)o1"
  remaining at 24 h: "> 99%"
- SMILES_CODE: "O=C(NCCCCCCc1ccccc1)Oc1cccc(-c2nn[nH]n2)c1"
  remaining at 24 h: "> 99%"
- SMILES_CODE: "Cc1cc(C(N)=O)c(-c2cccc(OC(=O)N3CCC(NCCCc4ccccc4)CC3)c2)o1"
  remaining at 24 h: "> 99%"
